This collection of values is drawn from patent US20250163057A1.

Provide the reported IC50 of each item.
- System: Cullin-3 (CUL3) neddylation
- test.method.notes: AlphaLISA assay for Cullin-3 (CUL3) neddylation in TF 1 cells
- Assay type: cell-based
- recorded.conditions: Homo sapiens, TF-1, 3 h, 3 hours treatment

Task item: // returns reported IC50 for input CCN1C(=O)[C@@H](NC(=O)c2cccc(C(F)(F)F)c2)[C@@H](C)c2c(C(=O)N3[C@H](C#N)C[C@H]4C[C@H]43)nn(C3CCOCC3)c21 (mixture of isomers) [Compound I-386]
Reply: ≤ 100 nM

Task item: Could you share which IC50 value was measured for CCN1C(=O)[C@@H](NC(=O)c2ccc3ocnc3c2)[C@@H](C2CC2)c2c(C(=O)N3[C@H](C#N)C[C@H]4C[C@H]43)nn(C3CCOCC3)c21 [Compound I-601] ?
Reply: 100 to 1000 nM

Task item: Field request: IC50 | item: CCN1C(=O)[C@@H](NC(=O)COc2ccccc2)[C@@H](C2CC2)c2c(C(=O)N3[C@H](C#N)C[C@H]4C[C@H]43)nn(C3CCOCC3)c21 [Compound I-628]
Reply: 100 to 1000 nM

Task item: Fill blank: measured IC50 of the compound CCN1C(=O)[C@@H](NC(=O)c2cccc(C(F)(F)F)c2)[C@@H](c2ccc(F)cc2)c2c(NC(=O)[C@@H](C)Br)nn(-c3ccccc3)c21 (mixture of isomers) [Compound I-177] is ____.
Reply: 100 to 1000 nM

Task item: If you can, please state the reported IC50 value of CCN1C(=O)[C@@H](NC(=O)c2cccc(C(F)(F)F)c2)[C@@H](C2CC2)c2c(C(=O)N3CS(=O)(=O)C[C@H]3C#N)nn(C3CCOCC3)c21 [Compound I-617] .
Reply: ≤ 100 nM

Task item: Data request, read-out IC50, for CCN1C(=O)[C@@H](NC(=O)c2cccc(C(F)(F)F)c2)[C@@H](c2ccc(F)cc2)c2c(C(=O)N(C)[C@@H](C#N)CCN(C)C3COC3)nn(C3CCOCC3)c21 [Compound I-654]
Reply: ≤ 100 nM

---

- Test system: Cullin-3 (CUL3) neddylation
- test.method.notes: AlphaLISA assay for Cullin-3 (CUL3) neddylation in TF 1 cells
- Type: cell-based
- recorded.conditions: Homo sapiens, TF-1, 3 h, 3 hours treatment
pIC50: −log10 of the molar value.
endpoint.name: pIC50

Task item: Can you look up the measured pIC50 of CCN1C(=O)[C@@H](NC(=O)c2cccc(C(F)(F)F)c2)[C@@H](c2ccc(F)cc2)c2c(C(=O)N3CC[C@H](NC)[C@H]3C#N)nn(C3CCOCC3)c21 (mixture of isomers) for me?
Reply: ≥ 7.00

Task item: Quick one: pIC50 of CCN1C(=O)[C@@H](NC(=O)c2cccc(C(F)(F)F)c2)[C@@H](c2ccc(F)cc2)c2c([C@@H](CN(C)C)NC#N)nn(-c3ccccc3)c21 (mixture of isomers) ?
Reply: ≥ 7.00

Task item: Report pIC50 for CCCn1nc(C(=O)N(CC#N)C2CC2)c2c1N(CC)C(=O)[C@H](NC(=O)c1cccc(C(F)(F)F)c1)[C@@H]2C1CC1 please.
Reply: < 6.00

Task item: Fill in: pIC50 of CCN1C(=O)[C@@H](NC(=O)c2cccc(C(F)(F)F)c2)[C@@H](c2ccc(F)cc2)c2c(C(=O)N3[C@H](C)CC[C@H]3C#N)nn(C3CCOCC3)c21 is ___
Reply: 6.00 to 7.00

Task item: Tell me the measured pIC50 of CCN1C(=O)[C@@H](NC(=O)c2cccc(C(F)(F)F)c2)[C@@H](c2ccc(F)cc2)c2c(C(=O)N3CC[C@H]3C#N)nn(C3CCOCC3)c21 , please.
Reply: ≥ 7.00

Task item: // returns reported pIC50 for input CCN1C(=O)[C@@H](NC(=O)c2cccc(C(F)(F)F)c2)[C@@H](c2ccc(F)cc2)c2c(C(=O)NC3(C#N)CC3)nn(-c3ccccc3)c21
Reply: 6.00 to 7.00

Task item: Reported pIC50, molecule CCN1C(=O)[C@@H](NC(=O)c2cccc(C(F)(F)F)c2)[C@H](c2ccc(F)cc2)c2c(CNC(=O)CC#N)nn(-c3ccccc3)c21 : ____
Reply: 6.00 to 7.00

Task item: What value of measured pIC50 is listed for CCN1C(=O)[C@@H](NC(=O)c2cccc(C(F)(F)F)c2)[C@@H](c2ccc(F)cc2)c2c(C(=O)N(C)[C@H](C#N)CCN3CCC34COC4)nn(-c3ccccc3)c21 ?
Reply: ≥ 7.00

Task item: Which value of pIC50 has been reported for C=CC(=O)Nc1nn(-c2ccccc2)c2c1[C@H](c1ccc(F)cc1)[C@H](NC(=O)c1cccc(C(F)(F)F)c1)C(=O)N2CC (racemic) in the records?
Reply: 6.00 to 7.00

---

Please go through the items and note down their IC50.
- target.entity: DCN1 (DCUND1) protein PONY domain (Homo sapiens (Human), UniProt Q96GG9)
- Sequence (Q96GG9 60-248): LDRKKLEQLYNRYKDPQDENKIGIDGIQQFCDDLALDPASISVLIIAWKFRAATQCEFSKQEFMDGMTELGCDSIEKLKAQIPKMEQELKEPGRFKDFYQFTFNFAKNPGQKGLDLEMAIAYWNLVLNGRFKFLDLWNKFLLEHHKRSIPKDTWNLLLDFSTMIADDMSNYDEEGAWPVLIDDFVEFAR
- test.method.notes: TR-FRET assay, DCN1 binding with FAM-labeled probe
- recorded.conditions: 24 hr after treatment with compound; read-out: TR FRET IC50 24 hr

Task item: Return reported IC50; argument: CCN1C(=O)[C@@H](NC(=O)c2cccc(C(F)(F)F)c2)[C@@H](c2ccc(F)cc2)c2c(CNC(=O)C3=C(C(=O)OC)CC3)nn(-c3ccccc3)c21 [Compound I-119]
Reply: 200 to 1000 nM

Task item: Data request, read-out IC50, for CCN1C(=O)[C@@H](NC(=O)c2cccc(C(F)(F)F)c2)[C@@H](c2ccc(F)cc2)c2c(CNC(=O)/C=C/C(=O)OC(C)(C)C)nn(-c3ccccc3)c21 (racemic) [Compound I-45]
Reply: ≤ 200 nM

Task item: Sample CCN1C(=O)[C@@H](NC(=O)c2cccc(C(F)(F)F)c2)[C@@H](c2ccc(F)cc2)c2c(C(=O)N3CC[C@H](C#N)C3)nn(-c3ccccc3)c21 (mixture of isomers) [Compound I-137] — what was its IC50?
Reply: 200 to 1000 nM

Task item: Need IC50, item CCN1C(=O)[C@@H](NC(=O)c2cccc(C(F)(F)F)c2)[C@@H](C2CC2)c2c(C(=O)N(C)[C@@H](C#N)CCN(C)C)nn(C3CCOCC3)c21 [Compound I-550]
Reply: ≤ 200 nM

Task item: Give the measured IC50 of CCN1C(=O)[C@@H](NC(=O)c2ccn(C(F)F)n2)[C@@H](C2CC2)c2c(C(=O)N3[C@H](C#N)C[C@H]4C[C@H]43)nn(C3CCOCC3)c21 [Compound I-432] .
Reply: ≤ 200 nM

Task item: Name the reported IC50 value associated with the compound CCN1C(=O)[C@@H](NC(=O)c2cccc(C(F)(F)F)c2)[C@@H](c2ccc(F)cc2)c2c(C(=O)N3CCN(C4COC4)CC3C#N)nn(-c3ccccc3)c21 (stereo partly shown) [Compound I-357]
Reply: ≤ 200 nM

Task item: Form field: reported IC50 of C[C@@H](NC#N)c1nn(-c2ccccc2)c2c1[C@@H](c1ccc(F)cc1)[C@@H](NC(=O)c1cccc(C(F)(F)F)c1)C(=O)N2CCO [Compound I-498]
Reply: 1000 to 3000 nM

Task item: What measured IC50 goes with CCN1C(=O)[C@@H](NC(=O)c2cccc(C(F)(F)F)n2)[C@@H](C2CC2)c2c(C(=O)N3[C@H](C#N)C[C@H]4C[C@H]43)nn(C3CCOCC3)c21 [Compound I-390] ?
Reply: ≤ 200 nM

Task item: Could you tell me which IC50 is on file for CCN1C(=O)[C@@H](NC(=O)c2cccc(C(F)(F)F)c2)[C@@H](c2ccc(F)cc2)c2c(C(=O)N3CCC[C@H]3C#N)nn(C3CC3)c21 [Compound I-354] ?
Reply: ≤ 200 nM

Task item: // lookup IC50 for CCCn1nc(C(=O)N(CC#N)C2CC2)c2c1N(CC)C(=O)[C@H](NC(=O)c1cccc(C(F)(F)F)c1)[C@@H]2C1CC1 [Compound I-455]
Reply: 1000 to 3000 nM

Task item: Query (compound): CCN1C(=O)[C@@H](NC(=O)c2cccc(C(F)(F)F)c2)[C@@H](c2ccc(F)cc2)c2c([C@@H](CF)NC#N)nn(-c3ccccc3)c21 [Compound I-279] ; field requested: IC50
Reply: ≤ 200 nM

Task item: # lookup: IC50 of CCN1C(=O)[C@H](NC(=O)c2cccc(C(F)(F)F)c2)[C@@H](c2ccc(F)cc2)c2c(CNC(=O)/C(C)=C/C(=O)OC)nn(-c3ccccc3)c21 [Compound I-108]
Reply: 200 to 1000 nM

Task item: Given the entry CCN1C(=O)[C@@H](NC(=O)c2cccc(C(F)(F)F)c2)[C@@H](C2CCCC2)c2c(C(=O)N3[C@H](C#N)C[C@H]4C[C@H]43)nn(C3CCOCC3)c21 [Compound I-376] , report its measured IC50.
Reply: ≤ 200 nM

Task item: Please give the measured IC50 for this compound: CCN1C(=O)[C@H](NC(=O)c2cccc(C(F)(F)F)c2)[C@@H](c2ccc(F)cc2)c2c(COCC#N)nn(-c3ccccc3)c21 [Compound I-522]
Reply: 1000 to 3000 nM

Task item: Look at this compound and give its reported IC50. CCN1C(=O)[C@@H](NC(=O)c2cccc(C(F)(F)F)c2)[C@@H](C2CC2)c2c(C(=O)N3CC[C@H](NC)[C@H]3C#N)nn(C3CCOCC3)c21 (relative stereo) [Compound I-687]
Reply: ≤ 200 nM

Task item: Recorded IC50 of CCN1C(=O)[C@@H](NC(=O)c2cccc(C(F)(F)F)c2)[C@@H](c2ccc(F)cc2)c2c(CN(C#N)CCCN(C)C)nn(-c3ccccc3)c21 [Compound I-247] , please.
Reply: ≤ 200 nM
